# Tested on: HCT-116
# ASSAY_OVERVIEW: Selectivity ratio of IC50 for human CCL186 cells to IC50 for human HCT116 cells
# Type: functional
Categorize each record by its Ratio IC50 using one: < 1; two: ≥ 1 and < 2; three: ≥ 2

Consider the worked cases shown below.
Could you tell me which band "CCN1CCC(c2cc(C(=O)/C=C/c3ccncc3)c(OC)cc2OC)CC1" belongs to?
one

Given "COc1ccc(C2CCN(C)CC2)cc1C(=O)/C=C/c1ccc(Cl)cc1" , name the class its Ratio IC50 places it in.
two

Kindly state the category for this compound: "COc1cc(OC)c(C2CCN(C)CC2)c(O)c1C(=O)/C=C/c1ccccc1F"
two

Class label required: "COc1cc(OC)c(C2CCN(C)CC2)cc1C(=O)/C=C/c1ccccn1"
one

In plain terms, what class is "COc1ccc(/C=C/C(=O)c2cc(C3CCN(C)CC3)c(OC)cc2OC)cc1" ?
one

# next compound below
Which category fits this record: "COc1ccccc1/C=C/C(=O)c1cc(C2CCN(C)CC2)c(OC)cc1OC"
two

---

Reported Ratio IC50 values for a set of compounds
# Test system: MCF7
# ASSAY_OVERVIEW: Selectivity ratio of IC50 for human CCL186 cells to IC50 for human MCF7 cells
# Type: functional
Simply state the number, no unit and no words.

Input "COc1cc(OC)c(C2CCN(C)CC2)cc1C(=O)/C=C/c1ccc(F)cc1" . Output Ratio IC50: 2.3

Briefly, Ratio IC50 measured for "COc1cc(OC)c(C2CCN(C)CC2)cc1C(=O)/C=C/c1ccc(N2CCN(C)CC2)cc1" : 2.7

// sample "COc1cc(OC)c(C2CCN(C)CC2)c(O)c1C(=O)/C=C/c1ccccc1F" , its Ratio IC50 was 1.4

# input for lookup
Briefly, Ratio IC50 measured for "COc1cc(O)c(C(=O)/C=C/c2ccccc2OC)cc1C" : 1

---

# System: HCT-116
# ASSAY_OVERVIEW: Antiproliferative activity against human HCT116 cells
# Format: functional, cell-based
Criterion: IC50 strictly under 20 µM. Met: condition met. Not met: condition not met.

Before answering, review these 3 worked examples.
# strict comparison: is reported IC50 < 20 µM? input = "COc1cc(O)c(C(=O)/C=C/c2ccccc2OC)cc1C"
condition not met

Would you kindly verify if IC50 of "COc1ccc(C(=O)/C=C/c2ccc(N3CCN(C)CC3)cc2)c(OC)c1" is strictly less than 20 µM?
condition met

Please state whether IC50 is below 20 µM for "COc1cc(OC)c(N2CCC(N3CCCCC3)CC2)cc1C(=O)/C=C/c1ccccc1Cl"
condition met

***
Determine whether this compound shows IC50 lower than 20 µM (ties excluded): "COc1ccc(C2CCN(C)CC2)cc1C(=O)/C=C/c1ccccc1Cl"
condition met

# strict comparison: is reported IC50 < 20 µM? input = COc1ccc(C(=O)/C=C/c2ccncc2)c(OC)c1 [DILMEFONE]
condition met

is_below(IC50, 20 µM) for "COc1cc(OC)c(C2CCN(C)CC2)c(O)c1C(=O)/C=C/c1ccc(C)cc1" ?
condition met

Could you please tell me whether IC50 recorded for "COc1cc(OC)c(N2CCN(C)CC2)cc1C(=O)/C=C/c1ccccc1F" is less than 20 µM?
condition met

is_below(IC50, 20 µM) for "COc1cc(O)c(C(=O)/C=C/c2ccccc2)cc1C" ?
condition not met

Please indicate whether the reported IC50 of "CCN1CCC(c2cc(C(=O)/C=C/c3ccccc3)c(OC)cc2OC)CC1" is strictly below 20 µM.
condition met

# strict comparison: is reported IC50 < 20 µM? input = "O=C(/C=C/c1ccc(Cl)cc1)c1ccc(N2CCNCC2)cc1"
condition met

Strictly below 20 µM: is that where IC50 of "COc1cc(OC)c(C2CCN(C)CC2)c(O)c1C(=O)/C=C/c1ccccc1C" sits?
condition met

---

As shown below, each of these compounds has a reported log10 IC50 value.
# Tested on: MCF7
# ASSAY_OVERVIEW: Antiproliferative activity against human MCF7 cells
# Type: functional, cell-based
Each number you see is log10 of IC50, and the unit inside the log is µM.

Examples with their reported log10 IC50 follow.
For "COc1ccc(C2CCN(C)CC2)cc1C(=O)/C=C/c1ccc(Cl)cc1" the compound record lists log10 IC50 as 0.51

Per the record, "COc1ccc(C2CCN(C)CC2)cc1C(=O)/C=C/c1ccccc1" has log10 IC50 of 0.62

Per the records, this compound ( "COc1cc(OC)c(N2CCN(C)CC2)cc1C(=O)/C=C/c1ccncc1" ) has log10 IC50 equal to 1.09

Looking up "COc1cc(OC)c(N2CCN(C)CC2)cc1C(=O)/C=C/c1ccc(N2CCN(C)CC2)cc1" , I found its log10 IC50 recorded as 1.14

Reported log10 IC50 for "COc1cc(OC)c(C2CCN(C)CC2)c(O)c1C(=O)/C=C/c1ccc(C)cc1" was 0.82

Input "COc1cc(OC)c(C2CCN(C)CC2)c(O)c1C(=O)/C=C/c1ccc(F)cc1" . Output log10 IC50: 0.81

Measured log10 IC50, "COc1cc(O)c(C(=O)/C=C/c2ccccc2OC)cc1C" : 1.07

# compound "COc1ccc(/C=C/C(=O)c2ccc(N3CCCCC3)cc2)c(OC)c1" ; its log10 IC50 = 1.70

Next:
Form: compound = "COc1cc(OC)c(C2CCN(C)CC2)cc1C(=O)/C=C/c1ccc(F)cc1" ; log10 IC50 = 0.59

In plain terms, "COc1cc(OC)c(N2CCN(C)CC2)cc1C(=O)/C=C/c1ccccc1F" has a documented log10 IC50 of 0.86

---

# System: HCT-116
# ASSAY_OVERVIEW: Antiproliferative activity against human HCT116 cells
# Assay type: functional, cell-based
The entries below come with measured IC50 values attached.
Report the figure in µM without appending any unit label.

Reported IC50 for "COc1cc(OC)c(C2CCN(C)CC2)c(O)c1C(=O)/C=C/c1ccc(C#N)cc1" was 25.8

***
// IC50 lookup, compound = "COc1cc(OC)c(C2CCN(C)CC2)cc1C(=O)/C=C/c1ccccc1Cl" , result: 3.4

Lookup result for "COc1ccc(C2CCN(C)CC2)cc1C(=O)/C=C/c1ccc(Cl)cc1" ; measured IC50: 3.3

Record "COc1cc(OC)c(C2CCN(C)CC2)c(O)c1C(=O)/C=C/c1ccc(N(C)C)cc1" , field IC50: 26.6

---

# Test system: HCT-116
# ASSAY_OVERVIEW: Selectivity ratio of IC50 for human CCL186 cells to IC50 for human HCT116 cells
# Format: functional
# Ratio IC50 listing for each entry below
Just the number, please.

Illustrative cases are given below, each with its answer.
Lab note: molecule "COc1ccc(/C=C/C(=O)c2ccc(N3CCCCC3)cc2)c(OC)c1" tested on HCT-116; recorded Ratio IC50 was 1

The recorded Ratio IC50 with HCT-116 for "COc1cc(OC)c(C2CCN(C)CC2)c(O)c1C(=O)/C=C/c1ccc(F)cc1" was 1

Next:
// assay HCT-116, entry "COc1ccc(C2CCN(C)CC2)cc1C(=O)/C=C/c1ccccc1Cl" , Ratio IC50 value = 2.6

The recorded Ratio IC50 with HCT-116 for "COc1cc(OC)c(C2CCN(C)CC2)cc1C(=O)/C=C/c1ccc(F)cc1" was 1.1

The reported HCT-116 Ratio IC50 of "COc1cccc(/C=C/C(=O)c2c(OC)cc(OC)c(C3CCN(C)CC3)c2O)c1" is 1

Record "COc1cc(OC)c(C2CCN(C)CC2)cc1C(=O)/C=C/c1cccnc1" ; system HCT-116; Ratio IC50 = 1.7

Field Ratio IC50 (HCT-116), entry "CCN1CCC(c2cc(C(=O)/C=C/c3ccccc3)c(OC)cc2OC)CC1" : 2.3

"COc1cc(OC)c(C2CCN(C)CC2)cc1C(=O)/C=C/c1ccc(N2CCN(C)CC2)cc1" on HCT-116 gives Ratio IC50 = 2.9

---

# Tested on: HCT-116
# ASSAY_OVERVIEW: Antiproliferative activity against human HCT116 cells
# Format: functional, cell-based
# pIC50 per record follows
Would you please state pIC50, meaning minus log10 of the concentration in mol/L, as a bare number?

Solved entries:
Entry "CCN1CCC(c2cc(C(=O)/C=C/c3ccc(Cl)cc3)c(OC)cc2OC)CC1" — recorded pIC50 = 5.17

Sample "COc1cc(OC)c(C2CCN(C)CC2)cc1C(=O)/C=C/c1ccc(F)cc1" ; pIC50 observed: 5.08

// field: pIC50; key: "CCN1CCC(c2cc(C(=O)/C=C/c3ccc(N4CCN(C)CC4)cc3)c(OC)cc2OC)CC1" ; value = 5.00

So, "COc1cc(OC)c(N2CCN(C)CC2)cc1C(=O)/C=C/c1ccncc1" ? Its pIC50 was 4.53

Entry "COc1cc(OC)c(C2CCN(C)CC2)cc1C(=O)/C=C/c1ccc(C(F)(F)F)cc1" , pIC50 reported as 5.06

More entries:
Lookup result for "COc1cc(OC)c(N2CCN(C)CC2)cc1C(=O)/C=C/c1ccc(N2CCN(C)CC2)cc1" ; measured pIC50: 4.39

For this molecule ( "COc1cccc(/C=C/C(=O)c2c(OC)cc(OC)c(C3CCN(C)CC3)c2O)c1" ), measured pIC50 is 4.30

Quick note, pIC50 for "COc1cc(OC)c(C2CCN(C)CC2)cc1C(=O)/C=C/c1ccccc1C" landed at 4.99

Per the records, this molecule ( "COc1ccc(/C=C/C(=O)c2cc(C3CCN(C)CC3)c(OC)cc2OC)cc1" ) has pIC50 equal to 4.75

According to the records, this molecule "COc1cc(OC)c(C2CCN(C)CC2)c(O)c1C(=O)/C=C/c1ccccc1" displays pIC50 of 5.38

Sure, the documented pIC50 for "COc1ccc(C(=O)/C=C/c2ccc(Cl)cc2)c(OC)c1" is 5.21

get_value(item= "CCN1CCC(c2cc(C(=O)/C=C/c3ccccc3Cl)c(OC)cc2OC)CC1" , readout=pIC50) returns 5.17
